Provenance of the data: the supplement of paper PMC5998384

Reported solubility change mitosis (log2) values follow for various sequences
Test system: HeLa Kyoto;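 also: synchronized HeLa Kyoto cells (double thymidine block for G1/S, nocodazole release for mitosis), protein amounts in NP-40 versus SDS lysates quantified by mass spectrometry, three biological replicates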
METHOD DESCRIPTION: solubility change mitosis vs G1/S (difference of NP-40 vs SDS log2 ratios) (log2 ratio difference); higher = more soluble in mitosis
Reply briefly: the number, and no unit.

Assay HeLa Kyoto, sample MGCTLSAEDKAAVERSKMIDRNLREDGEKAAKEVKLLLLGAGESGKSTIVKQMKIIHEDGYSEDECKQYKVVVYSNTIQSIIAIIRAMGRLKIDFGEAARADDARQLFVLAGSAEEGVMTPELAGVIKRLWRDGGVQACFSRSREYQLNDSASYYLNDLDRISQSNYIPTQQDVLRTRVKTTGIVETHFTFKDLYFKMFDVGGQRSERKKWIHCFEGVTAIIFCVALSDYDLVLAEDEEMNRMHESMKLFDSICNNKWFTETSIILFLNKKDLFEEKIKRSPLTICYPEYTGSNTYEEAAAYIQCQFEDLNRRKDTKEIYTHFTCATDTKNVQFVFDAVTDVIIKNNLKECGLY [GNAI3] , solubility change mitosis (log2) read: -0.175

Assay HeLa Kyoto, sample MAEVSIDQSKLPGVKEVCRDFAVLEDHTLAHSLQEQEIEHHLASNVQRNRLVQHDLQVAKQLQEEDLKAQAQLQKRYKDLEQQDCEIAQEIQEKLAIEAERRRIQEKKDEDIARLLQEKELQEEKKRKKHFPEFPATRAYADSYYYEDGGMKPRVMKEAVSTPSRMAHRDQEWYDAEIARKLQEEELLATQVDMRAAQVAQDEEIARLLMAEEKKAYKKAKEREKSSLDKRKQDPEWKPKTAKAANSKSKESDEPHHSKNERPARPPPPIMTDGEDADYTHFTNQQSSTRHFSKSESSHKGFHYKH [CCDC50] , solubility change mitosis (log2) read: 0.182
